Kindly state purity estimated by HPLC, Day 14, Condition 25° C. ± 2° C. for each of the entries shown.
- assayMethodText: Stability studies: storage at room temperature and accelerated storage condition, purity estimated by HPLC
- Assay type: physicochemical
- conditionParameters: Day 14; 25° C. ± 2° C.; properly packed material
- Text: The compounds of present invention were stored under conditions as shown in below table [room temperature and on accelerated storage condition (ATS)] and the purity was estimated by HPLC. The properly packed material was subjected to the conditions mentioned in the table below.
Give bare numbers.

N=C(N)NCCC[C@H](/N=C/c1ccc2ccccc2c1)C(=O)O ... 99.65
N=C(N)NCCC[C@H](/N=C/c1cccc(C(F)(F)F)c1)C(=O)O ... 99.70
C=CCc1cccc(/C=N/[C@@H](CCCNC(=N)N)C(=O)O)c1O ... 99.50
COc1cccc(O)c1/C=N/[C@@H](CCCNC(=N)N)C(=O)O ... 99.00

List purity estimated by HPLC, Day 14, Condition 25° C. ± 2° C. for every entry below, keeping the order given.
1. Cc1ccc(/C=N/[C@@H](CCCNC(=N)N)C(=O)O)o1
2. N=C(N)NCCC[C@H](/N=C/c1ccc2c(c1)OCO2)C(=O)O

[99.10, 98.80]

* * *

- assayMethodText: Stability studies: storage at room temperature and accelerated storage condition, purity estimated by HPLC
- Type: physicochemical
- conditionParameters: Day Zero; 54° C. ± 2° C. (accelerated storage); properly packed material
- Excerpt: The compounds of present invention were stored under conditions as shown in below table [room temperature and on accelerated storage condition (ATS)] and the purity was estimated by HPLC. The properly packed material was subjected to the conditions mentioned in the table below.
attributeMeasured: purity estimated by HPLC, Day Zero, Condition 54° C. ± 2° C.
Answers are plain numbers.

Cc1ccc(/C=N/[C@@H](CCCNC(=N)N)C(=O)O)o1 ... 99.00
N=C(N)NCCC[C@H](/N=C/c1cccc(C(F)(F)F)c1)C(=O)O ... 99.60
COc1cccc(O)c1/C=N/[C@@H](CCCNC(=N)N)C(=O)O ... 99.20
N=C(N)NCCC[C@H](/N=C/c1ccc2ccccc2c1)C(=O)O ... 99.65
C=CCc1cccc(/C=N/[C@@H](CCCNC(=N)N)C(=O)O)c1O ... 99.63

Consider the additional compound presented here.
Reported purity estimated by HPLC, Day Zero, Condition 54° C. ± 2° C. ( N=C(N)NCCC[C@H](/N=C/c1ccc2c(c1)OCO2)C(=O)O ) = 98.75

* * *

- assayMethodText: Stability studies: storage at room temperature and accelerated storage condition, purity estimated by HPLC
- Type: physicochemical
- conditionParameters: Day Zero; 25° C. ± 2° C.; properly packed material
attributeMeasured: purity estimated by HPLC, Day Zero, Condition 25° C. ± 2° C.
Numbers only.

N=C(N)NCCC[C@H](/N=C/c1ccc2ccccc2c1)C(=O)O [Example 30] ... 99.70

I need purity estimated by HPLC, Day Zero, Condition 25° C. ± 2° C. for every entry listed below, if you could help.
1. N=C(N)NCCC[C@H](/N=C/c1cccc(C(F)(F)F)c1)C(=O)O [Example 2]
2. Cc1ccc(/C=N/[C@@H](CCCNC(=N)N)C(=O)O)o1 [Example 26]
3. COc1cccc(O)c1/C=N/[C@@H](CCCNC(=N)N)C(=O)O [Example 11]

99.71
99.20
99.10

Hey, can you go through the list below and give me purity estimated by HPLC, Day Zero, Condition 25° C. ± 2° C. for every item?
1. N=C(N)NCCC[C@H](/N=C/c1ccc2c(c1)OCO2)C(=O)O [Example 24]
2. C=CCc1cccc(/C=N/[C@@H](CCCNC(=N)N)C(=O)O)c1O [Example 22]

1. 98.90
2. 99.60
